experimental.protocol: qHTS Assay for Foot and Mouth Disease Virus Antivirals: Primary Screen against the MLPCN compound library; further: nearly all actives have a fitted effect of over 55% in size
experimental.context: FMDV antiviral cell-based qHTS; series mostly up to 57.9 µM
Screen size: about 410,000 compounds; about 2,000 (0.49%) were called active. Another 8% or so got no clear call; they are omitted. The call rests on the fitted dose curve; tested in HEK293 reporter line. Only a selection was taken, and actives are over-represented in it overall.
Labels: active, inactive

>>> cat("O=C(Nc1nc(-c2ccc(S(=O)(=O)N3CCCC3)cc2)cs1)C1COc2ccccc2O1 (stereo unspecified)")
"inactive"
>>> cat("COc1ccc(C(C)=O)cc1COC(=O)CNC(=O)c1ccccc1F")
"inactive"
>>> cat("CN(c1ccccc1)S(=O)(=O)c1ccc(C(=O)NCCc2ccc(F)cc2)cc1")
"inactive"
>>> cat("O=C(O)c1ccnc(Cl)c1")
"inactive"
>>> cat("Cc1ccc(S(=O)(=O)N(C)C)cc1NC(=O)COc1cccc(-n2cnnn2)c1")
"inactive"
>>> cat("COc1cc(SC)ccc1C(=O)NCCOc1c(C)cc(C)cc1C")
"inactive"
>>> cat("COc1ccc(C(=O)Nc2ccc(C)cn2)c(OC)c1")
"inactive"
>>> cat("Cc1ncsc1CCC(=O)N1CCCC(c2nc(-c3ccncc3)ncc2-c2ccccc2)C1 (stereo unspecified)")
"inactive"
>>> cat("CC(=O)c1sc(NC(=O)C2COc3ccccc3O2)nc1C (stereo unspecified)")
"active"
>>> cat("CCCCn1c(=O)c(CCC(=O)OC(C)C(=O)Nc2cccc(Cl)c2Cl)nc2ccccc21 (stereo unspecified)")
"inactive"
>>> cat("CC(=O)c1ccc(-c2cc([C@H]3[C@H]4C=CC[C@@H](C)[C@@H]4C(=O)N3Cc3ccccc3)ccc2F)cc1")
"inactive"
>>> cat("COc1ccccc1NS(=O)(=O)c1cccc(C(=O)N/N=C/c2ccc(N3CCOCC3)cc2)c1")
"inactive"
>>> cat("CC[C@H]1c2[nH]c3ccc(C(C)C)cc3c2[C@@H]2CCN3C(=O)CCC[C@H]1[C@H]23")
"inactive"
>>> cat("O=C(Nc1ccc2c(c1)OCO2)c1cc(-c2ccc(Br)cc2)on1")
"inactive"
>>> cat("COc1ccc(N2CCN(C(=O)Cn3cnc4c(cnn4-c4ccc(C)cc4)c3=O)CC2)cc1")
"inactive"
>>> cat("O=c1c2cnn(-c3ccccc3)c2ncn1Cc1ccccc1")
"inactive"
>>> cat("COc1ccc(C(=O)NCC(=O)N2CC=C(c3ccccc3)CC2)cc1OC")
"inactive"
>>> cat("Cc1cccc(N2CCN(C(=O)CCS(=O)(=O)c3ccc4c(c3)oc(=O)n4C)CC2)c1C")
"inactive"
>>> cat("CC(C)(C)OC(=O)C[C@@H]1C/C=C\\C[C@@H](CC(=O)N[C@@H](CO)Cc2ccccc2)C(=O)NC[C@@H](c2ccccc2)OC1=O")
"inactive"
>>> cat("COc1ccc(C(=O)NCc2cc(C)nc3ccccc23)cc1")
"inactive"
>>> cat("CC(=O)c1sc(NC(=O)c2cc(-c3ccccc3)nn2-c2ccccc2)nc1C")
"inactive"

###

experimental.protocol: qHTS Assay for Foot and Mouth Disease Virus Antivirals: Primary Screen against the MLPCN compound library; further: nearly all actives have a fitted effect of over 55% in size
experimental.context: FMDV antiviral cell-based qHTS; series mostly up to 57.9 µM
The campaign covered roughly 410,000 compounds. About 2,000 (0.49%) were called active. Another 8% or so got no clear call; they are omitted. The call rests on the fitted dose curve; tested in HEK293 reporter line. The list comes from a sample in which actives are over-represented; it also holds close analogues and randomly drawn compounds.
Labels: t = active, f = inactive

>>> cat("Fc1ccc(-c2noc(-c3ccc4c(c3)CCO4)n2)cc1")
"t"
>>> cat("COc1ccc(-c2noc(C3CC(=O)N(c4cc(C)cc(C)c4)C3)n2)cc1 (stereo unspecified)")
"f"
>>> cat("Cc1ccc(-c2noc(-c3ccc(N4CCCCC4)c([N+](=O)[O-])c3)n2)cc1")
"f"
>>> cat("Cc1oc(-c2nc3ccccc3n2C)cc1C(=O)c1ccccc1")
"t"
>>> cat("CCOc1ccc(-c2nnc3ccc(SC(C)C)nn23)cc1")
"f"
>>> cat("Cc1ccc(C(=O)N2CCN(c3nc4ccccc4n3C)CC2)cc1")
"f"
